- assay name: DRUGMATRIX: Nicotinic Acetylcholine radioligand binding (ligand: [125I] Epibatidine)
- Format: cell membranes, Membrane
- measurement context: imr-32; Not Active = under 50% inhibition at 10 µM
*1 amine or outer side, *2 acyl side, *3 side chain or, on linkers, in order; H or OH if unused. Where a SMILES comes first, the peptide text is derived from it. Bridges are numbered along the chain shown (N, C = ends). Roman numbers before positions name the chains, in order. [ ]: non-standard residue; d: D form. Actinocin(1to9) = Cc1c2oc3c(C)ccc(C(=O)[*:2])c3nc-2c(C(=O)[*:1])c(N)c1=O; NMeV = CN[C@H](C(=O)O)C(C)C; Sar = CNCC(=O)O
endpoint label: Ki

1) CCCCc1nc(Cl)c(CO)n1Cc1ccc(-c2ccccc2-c2nnn[nH]2)cc1: Not Active
2) COc1nc(C)nc(Cl)c1NC1=NCCN1: Not Active
3) Cc1cc(C2CCCCC2)n(O)c(=O)c1: Not Active
4) Cc1c2oc3c(C)ccc(C(=O)N[C@@H]4C(=O)N[C@H](C(C)C)C(=O)N5CCC[C@H]5C(=O)N(C)CC(=O)N(C)[C@@H](C(C)C)C(=O)O[C@@H]4C)c3nc-2c(C(=O)N[C@@H]2C(=O)N[C@H](C(C)C)C(=O)N3CCC[C@H]3C(=O)N(C)CC(=O)N(C)[C@@H](C(C)C)C(=O)O[C@@H]2C)c(N)c1=O [DACTINOMYCIN] (I: T[dV]P[Sar][NMeV] / II: T[dV]P[Sar][NMeV]; ester I:1-I:C, II:1-II:C; linker I:N-II:N via Actinocin(1to9)): Not Active
5) CC[C@@]1(O)C[C@H](O[C@H]2C[C@H](N(C)C)[C@H](O[C@H]3C[C@H](O)[C@H](O[C@H]4CCC(=O)[C@H](C)O4)[C@H](C)O3)[C@H](C)O2)c2c(cc3c(c2O)C(=O)c2c(O)cccc2C3=O)[C@H]1C(=O)OC: Not Active
